- test.description: in vivo
- Design: species or system mouse
- particulars: female, nu/nu athymic, mouse, plasma; 75 mg/kg ip; read-out: AUC0-24 h plasma
metric.name: AUC(0-t) (µM·h)
Numbers only, in µM·h.

Data request, read-out AUC(0-t), for CC(C)NCCCn1c(Sc2cc(Cl)cc(Cl)c2)nc2c(N)ncnc21 1260

* * *

I'd appreciate it if you could supply IC50 values for the items below.
- assayed.target: Hsp90α (Homo sapiens)
- test.description: biochemical
- particulars: FP competition, 6 nM Cy3B-GM, 10 nM protein, 4° C. for 24 h
Numbers only, in µM.

Sample answers from the record:
>>> observed_result("CC(C)NCCCn1c(Sc2cc(Cl)cc(-c3ccoc3)c2)nc2c(N)ncnc21 [HJP-VI-39]")
21.3
>>> observed_result("CC(C)NCCCn1c(Sc2cc(Cl)cc(I)c2)nc2c(N)ncnc21 [HJP-V-149]")
43.2
>>> observed_result("Nc1ncnc2c1nc(Sc1cc(Cl)cc(I)c1)n2CCc1cccnc1 [HJP-V-147]")
72.5
>>> observed_result("CC(C)NCCCn1c(Sc2cc(Cl)cc(-c3ncco3)c2)nc2c(N)ncnc21 [HJP-VI-49]")
29.6

Field: next molecule
Give the reported IC50 for CC(C)NCCCn1c(Sc2cc(C(F)(F)F)cc(C(F)(F)F)c2)nc2c(N)ncnc21 [WS-14] (system: Hsp90α (Homo sapiens)). 8.56
